# test.system: T1, Omicron BA.1 RBD (SARS-CoV-2, UniProt P0DTC2 333-528)
# T1 construct: domain: RBD
# protocol.description: ELISA

binder	binding result
Omi38 (antibody, V domains shown) VH: QVQLVESGAEVKKPGSSVKVSCKASGGNFNMYTISWVRQAPGRGLEWMGRFIPIANKANYAQNFPGRVTITADKSTSTVYMELRSLTSDDTAVYYCARSGSYDAFDVWGQGTMVTVSS VL: AIRMTQSPSTLSASVGDRVTITCRASQTINSWLAWYQQKPGKAPKLLIYDASNLESGVPSRFSGSGSGTEFTLTISSLQPDDFATYYCQQYESYSPITFGQGTRLEIK	binds
Omi28 (antibody, V domains shown) VH: EVQLVESGGGLVQPGGSLRLSCAASGVIVSSNYMSWVRQAPGKGLQWVSVIYSGGSTFYADSVKGRFTISRDNSKNTLYLQMNSLRAEDTAVYYCARDLLEAGGTDYWGQGTLVTVSS VL: DVVMTQSPGTLSLSPGERATLSCRASQFIGSSYLAWYQQKPGQAPRLLIYGASNRATGVPDRFSGSGSGTDFTLTISRLEPEDFAVYYCQQYGSAPGTFGQGTKVEIK	binds
Omi35 (antibody, V domains shown) VH: QVQLVESGGGLVQPGRSLRLSCAASGFTFDDYAMHWVRQAPGKGLEWVSGSTWNSGTIDYADSVKGRFTISRDNAKNSLYLQMNSLRAEDTALYYCAKDRFRKGCSSTGCYKENYGMDVWGQGTTVTVSS VL: QSVVTQPPSVSVAPGQTARITCGGTNIGSKSVHWYQQKPGQAPVLVVYDDSDRPSGIPERFSGSNSGNTATLTITWVEAGDEADYYCQVWDSSSDNVLFGGGTKLTVL	binds
